- MEASURED_TARGET: Left-right determination factor 2 (Homo sapiens)
- MEASUREMENT_DESCRIPTION: LEFTY2 binders on small-molecule microarrays, primary screen, biochemical, small-molecule microarray, 635 nm fluorescence scan (AID 1110)
- TEST_SETTINGS: LEFTY2 binding, higher = more signal
MEASUREMENT_LABEL: composite z-score
Enter a number only.

Param readout = composite z-score; param system = Left-right determination factor 2 (Homo sapiens); param query = C=C(/C(=C/C[C@@H](OC(C)=O)c1ccc(OCCO)cc1)c1cc(C(=O)OC)ccc1OC)C(C)C ; response: value 0.354

Also C[C@]1(C(=O)NCC(F)(F)F)c2ccccc2C(=O)N(Cc2ccccc2)[C@H]1c1ccc(CO)cc1 , if possible. -0.722

Another compound to check: O=c1cccc(-c2ccco2)o1 0.758

Also check [N-]=[N+]=NC[C@H](Cc1ccccc1)NC(=O)c1ccccc1 -0.0257

CC(C)c1ccc(NN2C(C(O)Cc3ccccc3)C=CC3C(=O)N(c4ccccc4)C(=O)C32)cc1 (stereo not drawn) , same question. 0.126

// next record O=C1N[C@@H](Cc2ccccc2)C(=O)N2[C@@H]1C[C@@H](C(=O)O)[C@H]2c1ccc(O)cc1 0.572

Follow-up item: [N-]=[N+]=NCc1ccccc1[C@@H]1OC(c2ccc(OCCCO)cc2)=N[C@]1(Cc1ccccc1N=[N+]=[N-])C(=O)NCCN1CCOCC1 0.466

Similarly, CO[C@H]1O[C@H](CO)[C@@H](OC(=O)CCc2ccccc2)[C@H](OC(=O)c2cc3ccccc3[nH]2)[C@H]1OC(=O)c1cc2ccccc2[nH]1 ? 0.817

----------
- MEASUREMENT_DESCRIPTION: small-molecule microarray binders of probe aNog, primary screen, biochemical, biotinylated probe, 635/667 nm fluorescence (AID 1115);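 further: probe is biotinylated aNog protein used at 0.15 µg/mL for 1 h at 4 C; z-score combines 667 nm fluorescence of each spot with its signal to noise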
- TEST_SETTINGS: higher = more signal
Class Condition met: composite z-score at least 0.06. Class Condition not met: composite z-score below 0.06.

Reported composite z-score reaches at least 0.06 for COCC1=C2[C@@H](CCc3ccccc3)OB(O)C[C@@H]2[C@@H]2C(=O)N(C)C(=O)[C@@H]2C1 ? Condition not met

// query: CC(C)CCC[C@@H](C)[C@H]1CC[C@@]2(C)C3=C(CC[C@]12C)[C@@]1(C)CC[C@H](OC(=O)c2ccccc2)C(C)(C)C1CC3 (some centres undefined) Condition not met

# iterate: O=C1O[C@H](c2ccccc2)[C@H](c2ccccc2)N2[C@H]1[C@@H](C(=O)N1CCCCCCC1)[C@]1(C(=O)Nc3ccc(C#CC4(O)CCCCCC4)cc31)[C@H]2c1ccccc1OCCO Condition met

How about this molecule: CC(C)C(=C=CC[C@@H](O)c1cccc(OCCO)c1)C[C@@H](O)COCc1ccccc1 Condition not met

Here is the next molecule: COc1ccc(C(=O)Nc2cccc(CN3C(=O)[C@@]4(O[C@@H](CC(=O)N(CCO)Cc5ccccc5)[C@H]([Si](C)(C)c5ccc(OC)cc5)[C@H]4C)c4ccccc43)c2)cc1 Condition not met

Cool, now C=C(/C(=C/C[C@@H](OC(=O)c1ccncc1)c1cccc(OCCO)c1)c1cnc2ccccc2c1)C(C)C Condition met

Record: Cc1ccc([C@H]2C(C(=O)O)=C[C@@H](C(C)(C)C)N2S(=O)(=O)c2ccc(C)cc2)cc1 Condition met

Please give the result for CN(C)C(=O)[C@]1(CCS(=O)(=O)c2ccccc2)N=C(c2ccc(OCCCO)cc2)O[C@@H]1c1ccccc1 too. Condition not met

Try the molecule CC1(C)C(=O)C(c2ccccc2)=C2CN3C(=O)N(CCc4ccccc4)C(=O)C3(Cc3ccc(F)cc3)C=C21 (centres undefined) Condition met

Record: COC(=O)[C@@]1(Cc2ccc(F)cc2)[C@H]2c3cc(C(=O)N(C)C)n(Cc4ccc(O)c(OC)c4)c3C[C@H]2CN1C(=O)c1ccccc1 Condition not met

What do you get for CC(=O)NCCCC[C@@H]1NC(=O)[C@H]2C[C@@H](C(=O)NCCCCCNC(=O)CS)[C@@H](c3cccc(OCCO)c3)N2C1=O ? Condition not met

Request: CCOC(=O)C=Cc1ccccc1O Condition not met

And what about the molecule CC(C)OC(=O)CC(=O)CC(O)c1ccc([N+](=O)[O-])cc1 (centres undefined) ? Condition met

Okay, and O=C1OCCC/C=C\[C@H]2OC34C=CCN(c5ccc6ccccc6c5)C(=O)[C@H]3N(CCCO)C(=O)[C@@H]4C12 (some centres undefined) ? Condition not met

Repeat with CCOC(=O)C1=C[C@@H](C(C)(C)C)N(S(=O)(=O)c2ccc(C)cc2)[C@H]1c1ccc(C)cc1 Condition met

What do you get for CC(C)C[C@@H]1NC(=O)[C@@H]2C[C@H](C(=O)NCCCCCC[N+](C)(C)C)[C@H](c3cccc(OCCO)c3)N2C1=O ? Condition not met

Same lookup for CCCCCCCCCCC(O)C1C=CC2C(=O)N(c3ccccc3)C(=O)C2N1Nc1ccccc1F (centres undefined) , please. Condition met

Next molecule: COC(=O)C(CC#Cc1ccc2c(c1)[C@]1(C(=O)N2)[C@H](c2ccc(O)cc2)N2[C@H](c3ccccc3)[C@H](c3ccccc3)OC(=O)[C@H]2[C@@H]1C(=O)N1CCCCCCC1)C(=O)OC Condition met
